Target: recombinant PRL-1 (Homo sapiens, UniProt Q93096)
Construct: 6xHis (N, cleaved yes); made in house; host or cells: E. coli One Shot BL21 Star
Sequence (Q93096 1-173): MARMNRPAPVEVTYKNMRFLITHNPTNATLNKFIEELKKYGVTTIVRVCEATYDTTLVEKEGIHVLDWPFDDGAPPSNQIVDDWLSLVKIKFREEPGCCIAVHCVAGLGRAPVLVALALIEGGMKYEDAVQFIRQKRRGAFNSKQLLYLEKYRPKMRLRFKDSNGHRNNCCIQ
Assay: In vitro phosphatase assay (DiFMUP hydrolysis), PRL-1; further: test concentration or dose not given here
Type: biochemical
Settings: FDA-approved drug screen; compared to DMSO
Where a name gives a salt, the structure may show the parent alone.
result_type: % Phosphatase Activity (compared to DMSO) PRL-1 (%)
Only the number, expressed in %, is required.

input: Give the measured % Phosphatase Activity (compared to DMSO) PRL-1 of Cc1nccn1CC1CCc2c(c3ccccc3n2C)C1=O.Cl (stereo not drawn) [Ondansetron HCl] .
output: 103

input: Give the measured % Phosphatase Activity (compared to DMSO) PRL-1 of CC(=O)O[C@H]1C[C@@]2(C)[C@@H](C[C@@H](O)[C@H]3[C@@]4(C)CC[C@@H](O)[C@@H](C)[C@@H]4CC[C@@]32C)/C1=C(\CCC=C(C)C)C(=O)O [Fusidate Sodium] .
output: 87

input: Give the measured % Phosphatase Activity (compared to DMSO) PRL-1 of O=C(O)c1cc(=O)c2ccccc2o1 [Chromocarb] .
output: 95

input: Give the measured % Phosphatase Activity (compared to DMSO) PRL-1 of CCc1c2c(nc3ccc(OC(=O)N4CCC(N5CCCCC5)CC4)cc13)-c1cc3c(c(=O)n1C2)COC(=O)[C@]3(O)CC [Irinotecan] .
output: 4706

input: Give the measured % Phosphatase Activity (compared to DMSO) PRL-1 of N=C(N)N/N=C/c1c(Cl)cccc1Cl [Guanabenz Acetate] .
output: 94

input: Give the measured % Phosphatase Activity (compared to DMSO) PRL-1 of CN1CCC(OC(c2ccccc2)c2ccccc2)CC1 [Diphenylpyraline HCl] .
output: 97

input: Give the measured % Phosphatase Activity (compared to DMSO) PRL-1 of CN(C)c1ccc(C(=C2C=CC(=[N+](C)C)C=C2)c2ccc(N(C)C)cc2)cc1 [Crystal Violet] .
output: 79

input: Give the measured % Phosphatase Activity (compared to DMSO) PRL-1 of COC(=O)CCc1ccc(OCC(O)CNC(C)C)cc1 (stereo not drawn) [Esmolol HCl] .
output: 93

input: Give the measured % Phosphatase Activity (compared to DMSO) PRL-1 of NC(=O)OCC(COC(N)=O)c1ccccc1 [Felbamate] .
output: 103

---

Would you mind telling me the reported % Phosphatase Activity (compared to DMSO) PRL-2 of each entry?
Target: recombinant PRL-2 (Homo sapiens)
Construct: 6xHis (N, cleaved yes); made in house; host or cells: E. coli One Shot BL21 Star
Sequence (Q12974 whole entry): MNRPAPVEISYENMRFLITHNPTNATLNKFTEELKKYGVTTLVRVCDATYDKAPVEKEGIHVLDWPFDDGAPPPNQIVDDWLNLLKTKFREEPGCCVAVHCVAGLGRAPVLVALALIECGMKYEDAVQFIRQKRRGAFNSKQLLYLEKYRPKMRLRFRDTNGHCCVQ
Experiment: In vitro phosphatase assay (DiFMUP hydrolysis), PRL-2;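 further: PRL-2 activity read as DiFMUP hydrolysis after 20 min at room temperature with drug, enzyme first pre-reduced at 4 °C for 20 min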
Format: biochemical
Conditions: FDA-approved drug screen; compared to DMSO
Structures can show the parent of a compound that is named as a salt.
Only the number, expressed in %, is required.

input: Please provide the recorded % Phosphatase Activity (compared to DMSO) PRL-2 for C[C@H](CCC(=O)O)[C@H]1CC[C@H]2[C@@H]3[C@H](O)C[C@@H]4C[C@H](O)CC[C@]4(C)[C@H]3CC[C@]12C [Chenodeoxycholic Acid] , tested on recombinant PRL-2 (Homo sapiens).
output: 102

input: Please provide the recorded % Phosphatase Activity (compared to DMSO) PRL-2 for Cc1cc2c(cc1S(N)(=O)=O)S(=O)(=O)CCC2 [Meticrane] , tested on recombinant PRL-2 (Homo sapiens).
output: 94

input: Please provide the recorded % Phosphatase Activity (compared to DMSO) PRL-2 for Clc1ccc(COC(Cn2ccnc2)c2ccc(Cl)cc2Cl)c(Cl)c1 (stereo not drawn) [Miconazole Nitrate] , tested on recombinant PRL-2 (Homo sapiens).
output: 93

input: Please provide the recorded % Phosphatase Activity (compared to DMSO) PRL-2 for COC(=O)/C=C/C(=O)OC [Dimethyl Fumarate] , tested on recombinant PRL-2 (Homo sapiens).
output: 115

input: Please provide the recorded % Phosphatase Activity (compared to DMSO) PRL-2 for CCCCOc1ccc(OCCCN2CCOCC2)cc1 [Pramoxine HCl] , tested on recombinant PRL-2 (Homo sapiens).
output: 91

input: Please provide the recorded % Phosphatase Activity (compared to DMSO) PRL-2 for CN1CCc2nc(C(=O)N[C@@H]3C[C@@H](C(=O)N(C)C)CC[C@@H]3NC(=O)C(=O)Nc3ccc(Cl)cn3)sc2C1 [Edoxaban] , tested on recombinant PRL-2 (Homo sapiens).
output: 99

input: Please provide the recorded % Phosphatase Activity (compared to DMSO) PRL-2 for O=C(NCCO[N+](=O)[O-])c1cccnc1 [Nicorandil] , tested on recombinant PRL-2 (Homo sapiens).
output: 103

input: Please provide the recorded % Phosphatase Activity (compared to DMSO) PRL-2 for COC(=O)[C@@H]1CC2=CC(=O)CC[C@]2(C)[C@@]23O[C@@H]2C[C@@]2(C)[C@@H](CC[C@@]24CCC(=O)O4)[C@H]13 [Eplerenone] , tested on recombinant PRL-2 (Homo sapiens).
output: 112

input: Please provide the recorded % Phosphatase Activity (compared to DMSO) PRL-2 for Cc1cccc(C)c1NC(=O)C1CCCCN1C (stereo not drawn) [Mepivacaine HCl] , tested on recombinant PRL-2 (Homo sapiens).
output: 104
